Source listed as BigSolDB 2.1.

Conditions: in isobutanol, 303.15 K
ASSAY_ENDPOINT: solubility (mole fraction)
One number for each entry.

Ask | Give its solubility (mole fraction) value. Item: `N=C(Nc1ccccc1)Nc1ccccc1`
Reply | 0.0333

* * *

Settings: in acetonitrile, 273.15 K
ASSAY_ENDPOINT: solubility (mole fraction)

Ask | Give its solubility (mole fraction) value. Item: `N=C(Nc1ccccc1)Nc1ccccc1`
Reply | 0.00828

* * *

Details: in n-propanol, 288.15 K
ASSAY_ENDPOINT: solubility (mole fraction)
Answers are plain numbers.

Ask | Give its solubility (mole fraction) value. Item: `N=C(Nc1ccccc1)Nc1ccccc1`
Reply | 0.0259
